Value type: melting point

CC(C)(C)CCn1c(=O)c(=NNc2ccccc2)c(=O)n(-c2ccccc2F)c2ccccc21
112 to 114 °C
c1ccc(CNc2nc(-n3cncn3)nc3ccccc23)cc1
193 to 195 °C
CC1(C)Oc2c(cc(Cl)c3oc(C(=O)O)cc(=O)c23)-c2ccc([N+](=O)[O-])cc21
278 to 279 °C
CC(C)c1c(S(=O)(=O)c2ccc(O)cc2)c2ccccn2c1C#N
232 °C
O=C(c1ccc(F)cc1)C1CCN(C2Sc3ccccc3NC2=O)CC1 (stereo not drawn)
218 °C
Cc1[nH]c2ccccc2c1CC(=O)N1CCN(C(c2ccc(F)cc2)c2ccc(F)cc2)CC1
93 to 103 °C
CCCCCCCCCOC(=O)Oc1ccc(C(=O)O)cc1
118 to 120 °C
COc1cc(C(=O)Nc2c(Cl)cc3c(Br)n[nH]c3c2C(=O)NC(C)C)n(-c2ncccc2Cl)n1
217 to 218 °C

What value of measured melting point is listed for NS(=O)(=O)c1cc2cc(P(=O)(O)O)c(=O)[nH]c2cc1C(F)(F)F ?
240 to 244 °C

Name the reported melting point value associated with the compound Nc1nc(Nc2ccc(S(N)(=O)=O)cc2)sc1C(=O)c1ccc(C(=O)O)cc1
298 to 300 °C

Give the measured melting point of CC1(C)OC(=O)C(OC2CCCCC2)=C1c1ccc(S(C)(=O)=O)cc1 .
143 to 144 °C

Fill in: melting point of CCN(CC)CCC1CCN(CCNC(=O)N2c3ccccc3C(=O)Nc3cccnc32)CC1 is ___
170 to 172 °C

Any idea what its melting point is? The compound is O=C(O)[C@H](Cc1ccsc1)NN1C(=O)c2ccccc2C1=O
166 to 168 °C
